Cited source for all entries: patent US20130280392A1

experiment: Degradation of PAA in juices over time, residual PAA by titration with 0.1N sodium thiosulfate; format: physicochemical; conditions: 100 ppm solution of PAA in carrot juice (Brix=8.8), room temperature
measured endpoint: half-life at 100 ppm

Enquiry: Check the records and state half-life at 100 ppm for CC(=O)OO [PAA, peracetic acid]
Return: < 20 min

###

experiment: Degradation of PAA in juices over time, residual PAA by titration with 0.1N sodium thiosulfate; type: physicochemical; conditions: 100 ppm solution of PAA in apple juice (Brix=11.4), room temperature
measured endpoint: half-life at 100 ppm

Enquiry: Check the records and state half-life at 100 ppm for CC(=O)OO
Return: < 30 min
